- study system: human vWF A1 domain (SEQ ID NO 5) (Homo sapiens, UniProt P04275, T1381A)
- Sequence (P04275 with tags, fused parts or gaps T1381A): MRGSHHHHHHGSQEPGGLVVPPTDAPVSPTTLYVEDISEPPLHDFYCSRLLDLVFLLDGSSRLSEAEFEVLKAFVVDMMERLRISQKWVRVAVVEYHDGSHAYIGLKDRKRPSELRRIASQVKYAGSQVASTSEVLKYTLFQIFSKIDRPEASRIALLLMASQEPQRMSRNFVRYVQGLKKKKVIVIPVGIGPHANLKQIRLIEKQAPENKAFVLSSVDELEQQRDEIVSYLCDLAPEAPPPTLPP
- assay procedure: dot blot KD determination, human vWF A1 domain
- condition notes: read-out: Human A1 KD; rRdY aptamers; 6 point protein titration
pKd: −log10 of the molar value. Oligonucleotides are written 5' to 3', each unit as a sugar letter and its base; * is a phosphorothioate linkage, no mark a phosphodiester; rarer units and linkages stand in square brackets, end groups in braces. Plain capitals give the bases only. d = 2'-deoxy (DNA); r = 2'-OH (RNA)
Each entry below carries its recorded pKd.

molecule	pKd
AMX206.D8: rRdY aptamer clone (nucleic acid) rGrGrArGdCrGdCrAdCdTdCrArGdCdCrAdCrGrAdCrGrGdTrGrAdTrGrGrAdTdTrArGdCrGdCrGrGdTrGrGrAdTdCdTdTrArAdCrGdTrGdCrGrArGdTdTdTdCrGrAdCdCdTdCdTdCdTrGdCdTrArGdC	6.43
AMX206.A10: rRdY aptamer clone (nucleic acid) rGrGrArGdCrGdCrAdCdTdCrArGdCdCrAdCrGrGdCrAdTrGrAdCrGrGdTrGrAdTrGrArAdTdTrArGdCrGdCrGrGdTrGdTdCrGrGdTrGrGdTrGdTdCrAdTdTdTdCrGrAdCdCdTdCdTdCdTrGdCdTrArGdC	6.95
AMX205.F9: rRdY aptamer clone (nucleic acid) rGrGrArGdCrGdCrAdCdTdCrArGdCdCrAdCrGrGrArGdCrGdTdCrGrGdTrGrAdTrGrGrAdTdTrArGdCrGdCrGrGdCdTdCdCrGdTrGrGdTrAdCrGdCdCdTdTdTdCrGrAdCdCdTdCdTdCdTrGdCdTrArGdC	6.84
AMX206.D7: rRdY aptamer clone (nucleic acid) rGrGrArGdCrGdCrAdCdTdCrArGdCdCrAdCrGrGdCrAdCrGrAdCrGrGdTrGrAdTrGrArAdTdTrArGdCrGdCrGrGdTrGdTdCrGrGdTrGrGdTrGdTdTrAdTdTdTdCrGrAdCdCdTdCdTdCdTrGdCdTrArGdC	6.73
AMX205.H9: rRdY aptamer clone (nucleic acid) rGrGrArGdCrGdCrAdCdTdCrArGdCdCrAdCrGrAdCrGrGdTrGrAdTrGrGrAdTdTrArGdCrGdCrGrGdTrGrGrArGrArArGrAdTrGdCrGdCdTrGdTdTrGdTdTdTdCrGrAdCdCdTdCdTdCdTrGdCdTrArGdC	6.75
AMX205.H8: rRdY aptamer clone (nucleic acid) rGrGrArGdCrGdCrAdCdTdCrArGdCdCrAdCrArArAdCrGrGrAdCrGrGdTrGrAdTrGrGrAdTdTrArAdCrGdCrGrGrGdTdTdTrAdTrGrGdCrArArGrGdTdTdTdCrGrAdCdCdTdCdTdCdTrGdCdTrArGdC	6.10
AMX203.D6: rRdY aptamer clone (nucleic acid) rGrGrArGdCrGdCrAdCdTdCrArGdCdCrAdCrArGdTdTdCdTrGdTdCrGrGdTrGrAdTrGrArAdTdTrArGdCrGdCrGrArGrArGdCdTrGdTrGrGrGrAdCrGdTdTdTdCrGrAdCdCdTdCdTdCdTrGdCdTrArGdC	6.28
AMX205.H11: rRdY aptamer clone (nucleic acid) rGrGrArGdCrGdCrAdCdTdCrArGdCdCrAdCrGrGdCrAdCrGrAdCrGrGdTrGrAdTrGrGrAdTdTrArGdCrGdCrGrGdTrGdTdCrGrGdTrGrGdTrGdTdCrAdTdTdTdCrGrAdCdCdTdCdTdCdTrGdCdTrArGdC	6.84
AMX206.F9: rRdY aptamer clone (nucleic acid) rGrGrArGdCrGdCrAdCdTdCrArGdCdCrAdCrGrGrArGdCrGdTdCrGrGdTrGrAdTrGrGrAdTdTrArGdCrGdCrGrGdCdTdCdCrGdTrGrGdTrAdCrAdCrAdTdTdTdCrGrAdCdCdTdCdTdCdTrGdCdTrArGdC	6.86
AMX206.H9: rRdY aptamer clone (nucleic acid) rGrGrArGdCrGdCrAdCdTdCrArGdCdCrAdCrGrGrArGdCrGdTdCrGrGdTrGrAdTrGrGrAdTdTrArGdCrGdCrGrGdTdTdCdCrGdTrGrGdTrAdCrAdCdCdTdTdTdCrGrAdCdCdTdCdTdCdTrGdCdTrArGdC	6.96
AMX205.F7: rRdY aptamer clone (nucleic acid) rGrGrArGdCrGdCrAdCdTdCrArGdCdCrAdCrAdCrGrAdCrAdTdTrGrGdCrGrGrGdTdTrGdTrArAdTdTrAdCdCrAdCrGdCrAdTrGrGdCdTrGdTdTdTrGdTdTdTdCrGrAdCdCdTdCdTdCdTrGdCdTrArGdC	8.82
AMX205.H10: rRdY aptamer clone (nucleic acid) rGrGrArGdCrGdCrAdCdTdCrArGdCdCrAdCdTrGdTdTrGdCdCrGrAdCrGrGdTrGrAdTrGdTrAdTdTrArAdCrGdCrGrGrGdCrArAdCrGdTdTrGrGdTrGdTdTdTdCrGrAdCdCdTdCdTdCdTrGdCdTrArGdC	6.40
AMX203.A1: rRdY aptamer clone (nucleic acid) rGrGrArGdCrGdCrAdCdTdCrArGdCdCrAdCrArGdTdTdCdTrGdTdCrGrGdTrGrAdTrGrArAdTdTrArGdCrGdCrGrGrGrArGdCdTrGdTrGrGrGrAdCrGdTdTdTdCrGrAdCdCdTdCdTdCdTrGdCdTrArGdC	5.94
